Ref: ChEMBL document CHEMBL4513216

- System: Plasmodium berghei
- ASSAY_PROTOCOL: Screen against P. berghei liver stage (PbLuc), transformed with Luciferase, at 2uM
- Format: functional, HepG2
- CONDITION_DESCRIPTION: tested at 2 uM
The whole screen tested about 68,000 compounds, of which about 2,700 (4%) showed an effect of 50% or more. The sample as a whole holds a higher share of strong results than the screen did.
Listing of recorded INHIBITION by entry.

- COMPOUND: "Cc1cc(CNCc2c(C)nn(C)c2N2CCOCC2)no1"
  MEASURED_TARGET: "Plasmodium berghei"
  INHIBITION [%]: 65.77
- COMPOUND: "Cn1cccc1C(=O)NC(C)(C(N)=O)c1cccc(C(F)(F)F)c1 (stereo not drawn)"
  MEASURED_TARGET: "Plasmodium berghei"
  INHIBITION [%]: -23.95
- COMPOUND: "Cc1cccnc1CNC(=O)CC1C(=O)NCCN1CC(C)(C)C (stereo not drawn)"
  MEASURED_TARGET: "Plasmodium berghei"
  INHIBITION [%]: -26.52
- COMPOUND: "CC[C@@H](c1ccccc1)n1c(CCN)n[nH]c1=O"
  MEASURED_TARGET: "Plasmodium berghei"
  INHIBITION [%]: 31.69
- COMPOUND: "Cc1nc(C)c(C(C)NCc2c(C(C)C)nn(C)c2N(C)C)s1 (stereo not drawn)"
  MEASURED_TARGET: "Plasmodium berghei"
  INHIBITION [%]: -34.69
- COMPOUND: "Cc1nc(C2(O)CCCNCC2)sc1CCOc1ccc(Cl)cc1 (stereo not drawn)"
  MEASURED_TARGET: "Plasmodium berghei"
  INHIBITION [%]: 25.23
- COMPOUND: "CCN(C(=O)NCc1cccnc1N(C)C)C(C)c1cccnc1 (stereo not drawn)"
  MEASURED_TARGET: "Plasmodium berghei"
  INHIBITION [%]: 57.75
- COMPOUND: "O=C(NC1CCN(C(=O)C2CCCCC2)C1)c1ccncc1Cl (stereo not drawn)"
  MEASURED_TARGET: "Plasmodium berghei"
  INHIBITION [%]: -56.84
- COMPOUND: "Cc1nccc([C@@H]2C[C@@H]3CCN(S(=O)(=O)N(C)C)C[C@H]3O2)n1"
  MEASURED_TARGET: "Plasmodium berghei"
  INHIBITION [%]: 54.16
- COMPOUND: "Cc1cc(S(=O)(=O)N2CCCN3CCCC3C2)ccc1F (stereo not drawn)"
  MEASURED_TARGET: "Plasmodium berghei"
  INHIBITION [%]: 6.07
- COMPOUND: "COc1cccc(CN(C)Cc2cc(C#N)ccc2F)c1OC"
  MEASURED_TARGET: "Plasmodium berghei"
  INHIBITION [%]: 56.49
- COMPOUND: "CC(NC(=O)NCc1cccnc1N(C)C)c1cccs1 (stereo not drawn)"
  MEASURED_TARGET: "Plasmodium berghei"
  INHIBITION [%]: 51.31
- COMPOUND: "Cn1nnc2c1CCN(CC1CC1)C2COCC1CC1 (stereo not drawn)"
  MEASURED_TARGET: "Plasmodium berghei"
  INHIBITION [%]: -10.89
- COMPOUND: "CC(C)N(CCNC(=O)N1CCCC(N(C)C)C1)C1CC1 (stereo not drawn)"
  MEASURED_TARGET: "Plasmodium berghei"
  INHIBITION [%]: 73.01
- COMPOUND: "CCOc1ccccc1CNC(=O)N(CC)C(C)c1cccnc1 (stereo not drawn)"
  MEASURED_TARGET: "Plasmodium berghei"
  INHIBITION [%]: 21.97
- COMPOUND: "CCN1C[C@H]2C3(CCN(C(C)=O)CC3)CC[C@@]2(C(=O)N(C)C)C1"
  MEASURED_TARGET: "Plasmodium berghei"
  INHIBITION [%]: 17.47
- COMPOUND: "Cc1nc(CNCc2c(C)nn(C)c2N2CCOCC2)cs1"
  MEASURED_TARGET: "Plasmodium berghei"
  INHIBITION [%]: -14.3
- COMPOUND: "CN(C)C1CCCN(C(=O)NCCC(C)(C)C)C1 (stereo not drawn)"
  MEASURED_TARGET: "Plasmodium berghei"
  INHIBITION [%]: 28.95
- COMPOUND: "CC(NC(=O)c1ccsc1)c1ccc2c(c1)NC(=O)CO2 (stereo not drawn)"
  MEASURED_TARGET: "Plasmodium berghei"
  INHIBITION [%]: -34.61
- COMPOUND: "Cc1ccc(S(=O)(=O)N2CCCCC(N3CCN(C)CC3)C2)cc1F (stereo not drawn)"
  MEASURED_TARGET: "Plasmodium berghei"
  INHIBITION [%]: 50.3
- COMPOUND: "Cc1cccnc1CN1CC[C@@](C)(O)[C@H](Oc2ccccc2)C1"
  MEASURED_TARGET: "Plasmodium berghei"
  INHIBITION [%]: 37.4
- COMPOUND: "Cc1nn(CC(=O)N(C)Cc2nncn2C(C)C)c(=O)c2ccccc12"
  MEASURED_TARGET: "Plasmodium berghei"
  INHIBITION [%]: -0.47
- COMPOUND: "CC(=O)NC1CCN(c2ncnc3c2c(C)nn3C)C1 (stereo not drawn)"
  MEASURED_TARGET: "Plasmodium berghei"
  INHIBITION [%]: 32.56
- COMPOUND: "Cc1nn(C)c(N2CCOCC2)c1CNCc1ccc(CO)c(F)c1"
  MEASURED_TARGET: "Plasmodium berghei"
  INHIBITION [%]: 63.05
- COMPOUND: "CS(=O)(=O)NCCC(=O)N1Cc2cnc(-c3ccccc3)nc2C1"
  MEASURED_TARGET: "Plasmodium berghei"
  INHIBITION [%]: -49.29
- COMPOUND: "Cc1ccc(S(=O)(=O)N2CCC(N3CCCCC3)CC2)cc1C"
  MEASURED_TARGET: "Plasmodium berghei"
  INHIBITION [%]: -25.62
- COMPOUND: "Cc1nccc([C@H]2C[C@@H]3CCN(S(=O)(=O)N(C)C)C[C@H]3O2)n1"
  MEASURED_TARGET: "Plasmodium berghei"
  INHIBITION [%]: 21.33
- COMPOUND: "COc1ncccc1CNCc1c(C)nn(C)c1N1CCOCC1"
  MEASURED_TARGET: "Plasmodium berghei"
  INHIBITION [%]: 40.24
- COMPOUND: "CC(C)C(NC(=O)NCc1cccnc1N(C)C)c1cccs1 (stereo not drawn)"
  MEASURED_TARGET: "Plasmodium berghei"
  INHIBITION [%]: -16.65
- COMPOUND: "COCCN1CCCC1c1ccnc(-c2ccccc2)n1 (stereo not drawn)"
  MEASURED_TARGET: "Plasmodium berghei"
  INHIBITION [%]: 14.3
- COMPOUND: "CC(=O)N1CCC(c2cc(Nc3ncccn3)nc(C)n2)C1 (stereo not drawn)"
  MEASURED_TARGET: "Plasmodium berghei"
  INHIBITION [%]: 31.98
- COMPOUND: "O[C@H]1Cc2ccccc2[C@H]1Nc1ncccc1C(F)(F)F"
  MEASURED_TARGET: "Plasmodium berghei"
  INHIBITION [%]: -12.95
- COMPOUND: "COc1c(CNC(C)c2sc(C)nc2C)c(C(C)C)nn1C (stereo not drawn)"
  MEASURED_TARGET: "Plasmodium berghei"
  INHIBITION [%]: 59.99
- COMPOUND: "COc1cccc(CN(C)Cc2ccc(C#N)cc2)c1OC"
  MEASURED_TARGET: "Plasmodium berghei"
  INHIBITION [%]: 10.52
- COMPOUND: "CC(=O)N1CCC(Cc2cncc(-c3c(C)n[nH]c3C)n2)C1 (stereo not drawn)"
  MEASURED_TARGET: "Plasmodium berghei"
  INHIBITION [%]: 23.22
- COMPOUND: "CCS(=O)(=O)NCc1cc(Br)c(OC)c(OC)c1"
  MEASURED_TARGET: "Plasmodium berghei"
  INHIBITION [%]: 68.69
- COMPOUND: "CCN(C(=O)NCc1ccccc1OC(F)F)C(C)c1cccnc1 (stereo not drawn)"
  MEASURED_TARGET: "Plasmodium berghei"
  INHIBITION [%]: 38.67
- COMPOUND: "O=C(NCCc1cc2nc(-c3ccncc3)ccn2n1)C1CCOCC1"
  MEASURED_TARGET: "Plasmodium berghei"
  INHIBITION [%]: 9.9
- COMPOUND: "CC(c1nc(C2CC2)no1)N1CCc2c(ncn2C2CC2)C1 (stereo not drawn)"
  MEASURED_TARGET: "Plasmodium berghei"
  INHIBITION [%]: -40.15
- COMPOUND: "CC(=O)N1CCN(C(=O)NC(C)Cn2ccnc2)CC1 (stereo not drawn)"
  MEASURED_TARGET: "Plasmodium berghei"
  INHIBITION [%]: 14.47
- COMPOUND: "CC(C)(C)CN1CCC[C@H]1c1nc(-c2cncnc2N)no1"
  MEASURED_TARGET: "Plasmodium berghei"
  INHIBITION [%]: -10.21
- COMPOUND: "CCc1nnc2n1CCN(Cc1cc(Cl)c3c(c1)OCCCO3)C2"
  MEASURED_TARGET: "Plasmodium berghei"
  INHIBITION [%]: -3.57
- COMPOUND: "O=C(Cn1nc2c(cc1=O)CCCC2)NC(C(=O)O)c1ccccc1 (stereo not drawn)"
  MEASURED_TARGET: "Plasmodium berghei"
  INHIBITION [%]: 25.23
- COMPOUND: "Clc1ccc2oc(C3CCN(Cc4nc(C5CC5)no4)CC3)nc2c1"
  MEASURED_TARGET: "Plasmodium berghei"
  INHIBITION [%]: 10.11
- COMPOUND: "CN1CCCC(CCC(=O)N2CCc3c(nc(CC4CC4)[nH]c3=O)C2)C1 (stereo not drawn)"
  MEASURED_TARGET: "Plasmodium berghei"
  INHIBITION [%]: 10.1
- COMPOUND: "C1CC(CN2CCc3c(nnn3CC3CC3)C2COCC2CC2)C1 (stereo not drawn)"
  MEASURED_TARGET: "Plasmodium berghei"
  INHIBITION [%]: -38.23
- COMPOUND: "Cc1ccc(NC(=O)N2CCOC(C(N)=O)C2)cc1C(F)(F)F (stereo not drawn)"
  MEASURED_TARGET: "Plasmodium berghei"
  INHIBITION [%]: 33.11
- COMPOUND: "Cc1nn(C)c(N2CCOCC2)c1CNCc1ccccc1CO"
  MEASURED_TARGET: "Plasmodium berghei"
  INHIBITION [%]: 50.18
